target: FUT7 (Homo sapiens)
Sequence (Q11130 whole entry): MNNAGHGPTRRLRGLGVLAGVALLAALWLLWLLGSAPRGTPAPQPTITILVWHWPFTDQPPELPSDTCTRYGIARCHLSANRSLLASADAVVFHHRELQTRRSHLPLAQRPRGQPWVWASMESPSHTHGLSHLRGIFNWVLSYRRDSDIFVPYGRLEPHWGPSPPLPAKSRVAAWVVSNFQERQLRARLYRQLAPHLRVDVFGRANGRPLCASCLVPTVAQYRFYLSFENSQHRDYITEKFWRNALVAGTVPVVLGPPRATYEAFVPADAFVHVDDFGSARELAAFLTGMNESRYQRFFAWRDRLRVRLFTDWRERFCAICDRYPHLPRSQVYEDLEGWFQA
pIC50: −log10 of the molar value.
observable: pIC50

compound=Nc1nc2c(ncn2[C@@H]2O[C@H](COP(=O)(O)OP(=O)(O)O[C@H]3O[C@@H](CF)[C@@H](O)[C@@H](O)[C@@H]3O)[C@@H](O)[C@H]2O)c(=O)[nH]1 result=~5.60

These measurements were taken from paper PMC3427410.
